Data origin, for the record: ChEMBL document CHEMBL5104198

What follows is a collection of Ki values obtained with Coagulation factor X (Homo sapiens, UniProt P00742).
Sequence (P00742 41-179 limits assumed): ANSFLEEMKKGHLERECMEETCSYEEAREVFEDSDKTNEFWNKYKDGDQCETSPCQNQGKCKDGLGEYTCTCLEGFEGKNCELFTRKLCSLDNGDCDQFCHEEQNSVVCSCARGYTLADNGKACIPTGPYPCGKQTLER
Sequence (P00742 235-488 limits assumed): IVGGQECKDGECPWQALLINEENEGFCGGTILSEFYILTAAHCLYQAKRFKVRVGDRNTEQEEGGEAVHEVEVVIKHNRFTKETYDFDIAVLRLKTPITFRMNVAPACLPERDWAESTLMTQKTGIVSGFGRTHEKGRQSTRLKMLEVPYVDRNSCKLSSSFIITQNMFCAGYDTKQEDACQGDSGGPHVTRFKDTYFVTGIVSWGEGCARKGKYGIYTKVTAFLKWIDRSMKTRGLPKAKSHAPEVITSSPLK
metric.name: Ki (nM)

Study these solved cases before continuing.
1) CC(C)N1CCC(NC(=O)c2cccn2CC(=O)Nc2ccc(Cl)cc2)CC1
51
2) CC(C)N1CCC(NC(=O)c2cc3ccccc3n2Cc2cc(-c3ccc(F)s3)on2)CC1
70

A = CC(C)N1CCC(NC(=O)c2cn(CC(=O)Nc3ccc(Cl)cc3)c3ccccc23)CC1
B = CC(C)N1CCC(NC(=O)c2cc3ccccc3n2Cc2cc(-c3ccc(Br)s3)on2)CC1
C = CC(C)N1CCC(NC(=O)c2nc3ccccc3n2CC(=O)Nc2ccc(Cl)cc2)CC1
Challenge: Rank by Ki (largest to smallest). Give your ranking as a list of the labels in the requested order.
Response given: A, B, C
